The origin of these recorded values is patent US20200339702A1.

target: T1, human ERBB3 His tagged, monomeric (human, UniProt P21860 20-643, biotinylated in the Alphascreen assays (sites not given)); assay: SPR (Biacore), captured IgG, monomeric ERBB3-His analyte
T1 construct: Used unbiotinylated as Biacore analyte and biotinylated in Alphascreen; treated as one molecule; also called human ERBB3-His (Acrobiosystems); biotinylated monomeric human ERBB3
attribute.measured: Kd (pM)
Numbers only, in pM.

Here are 6 binders together with their reported answers.
15D03 IgG1null (antibody, V domains shown, Human IgG1null and human Ckappa) VH: QVQLVESGGGLVKPGGSLRLSCAASGFTFSDYGMSWIRQAPGKGLEWVSTISDSGSYIYYADSVKGRFTISRDNAKNSLYLQMNSLRAEDTAVYYCAREWGDYDGFDHWGQGTLVTVSS VL: DIQMTQSPSSLSASVGDRVTITCRASQEISSYLSWYQQKPGKAPKLLIYAASSLQSGVPSRFSGSGSGTDFTLTISSLQPEDFATYYCLQYDSTPLTFGGGTKVEIK; 260
MH1 IgG1null (antibody, V domains shown, Designer (Maximally Humanized) clone; Human IgG1null and human Ckappa) VH: QVQLVESGGGLVKPGGSLRLSCAASGFTFSDYGMSWIRQAPGKGLEWVSTISDSGSYIYYADSVKGRFTISRDNAKNSLYLQMNSLRAEDTAVYYCARELGDYDGFDYWGQGTLVTVSS VL: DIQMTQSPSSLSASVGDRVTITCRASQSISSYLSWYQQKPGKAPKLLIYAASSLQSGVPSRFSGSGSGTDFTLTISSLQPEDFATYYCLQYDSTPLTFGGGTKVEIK; 510
MH2 IgG1null (antibody, V domains shown, Designer (Maximally Humanized) clone; Human IgG1null and human Ckappa) VH: QVQLVESGGGLVKPGGSLRLSCAASGFTFSDYGMSWIRQAPGKGLEWVSTISDSGSYIYYADSVKGRFTISRDNAKNSLYLQMNSLRAEDTAVYYCAREWGDYDGFDFWGQGTLVTVSS VL: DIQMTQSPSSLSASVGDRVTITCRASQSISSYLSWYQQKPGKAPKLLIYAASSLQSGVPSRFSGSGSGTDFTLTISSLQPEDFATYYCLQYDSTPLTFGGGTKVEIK; 270
17H10 IgG1null (antibody, V domains shown, Human IgG1null and human Ckappa) VH: QVQLVESGGGLVKPGGSLRLSCAASGFTFSDYGMSWIRQAPGKGLEWVSTISDGGSYTYYADSVKGRFTISRDNAKNSLYLQMNSLRAEDTAVYYCAREWGDYDGFDEWGQGTLVTVSS VL: DIQMTQSPSSLSASVGDRVTITCRASQSISGYLSWYQQKPGKAPKLLIYAASTLQSGVPSRFSGSGSGTDFTLTISSLQPEDFATYYCLQYDSTPYTFGGGTKVEIK; 190
11H02 IgG1null (antibody, V domains shown, Human IgG1null and human Ckappa) VH: QVQLVESGGGLVKPGGSLRLSCAASGFTFSDYGMSWIRQAPGKGLEWVSTISDSGSYTYYADSVKGRFTISRDNAKNSLYLQMNSLRAEDTAVYYCAREWGDYDGFDNWGQGTLVTVSS VL: DIQMTQSPSSLSASVGDRVTITCRASQIISSYLSWYQQKPGKAPKLLIYAASSLDSGVPSRFSGSGSGTDFTLTISSLQPEDFATYYCLQYYSTPLTFGGGTKVEIK; 1300
TTP IgG1null (antibody, V domains shown, Designer clone; Human IgG1null and human Ckappa; also called Total Theoretically Possible clone) VH: QVQLVESGGGLVKPGGSLRLSCAASGFTFSDYGMSWIRQAPGKGLEWVSTISDSGSTIYYADSVKGRFTISRDNAKNSLYLQMNSLRAEDTAVYYCAREYGDYDGFDYWGQGTLVTVSS VL: DIQMTQSPSSLSASVGDRVTITCRASQSISSYLNWYQQKPGKAPKLLIYAASSLQSGVPSRFSGSGSGTDFTLTISSLQPEDFATYYCLQYDSTPLTFGGGTKVEIK; 1200

Report Kd for each item below.
1. 15D10 IgG1null (antibody, V domains shown, Human IgG1null (L234A, L235A, G237A) and human Ckappa) VH: QVQLVESGGGLVKPGGSLRLSCAASGFTFSDYGMSWIRQAPGKGLEWVSTISDGGSYTYYADNVKGRFTISRDNAKNSLYLQMNSLRAEDTAVYYCAREWGDYDGFDFWGQGTLVTVSS VL: DIQMTQSPSSLSASVGDRVTITCRASQSISSYLSWYQQKPGKAPKLLIYAASTLQSGVPSRFSGSGSGTDFTLTISSLQPEDFATYYCLQYDSTPLTFGGGTKVEIK
2. MH4 IgG1null (antibody, V domains shown, Designer (Maximally Humanized) clone; Human IgG1null and human Ckappa) VH: QVQLVESGGGLVKPGGSLRLSCAASGFTFSDYGMSWIRQAPGKGLEWVSTISDSGSYIYYADSVKGRFTISRDNAKNSLYLQMNSLRAEDTAVYYCAREWGDYDGFDEWGQGTLVTVSS VL: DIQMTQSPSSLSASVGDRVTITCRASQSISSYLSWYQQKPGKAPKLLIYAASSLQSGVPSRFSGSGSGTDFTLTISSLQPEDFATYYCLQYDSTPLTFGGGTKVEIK
3. 16B09 IgG1null (antibody, V domains shown, Human IgG1null (L234A, L235A, G237A) and human Ckappa) VH: QVQLVESGGGLVKPGGSLRLSCAASGFTFSDYSMSWIRQAPGKGLEWVSTISDSGTYTYYPDSVKGRFTISRDNAKNSLYLQMNSLRAEDTAVYYCAREWGDYDGFDFWGQGTLVTVSS VL: DIQMTQSPSSLSASVGDRVTITCRASQEISSYLSWYQQKPGKAPKLLIYAASTLQSGVPSRFSGSGSGTDFTLTISSLQPEDFATYYCLQYDSTPLTFGGGTKVEIK
4. 15G11 IgG1null (antibody, V domains shown, Human IgG1null (L234A, L235A, G237A) and human Ckappa) VH: QVQLVESGGGLVKPGGSLRLSCAASGFTFSDYGMSWIRQAPGKGLEWVSTISDSGSYTYYPDSVKGRFTISRDNAKNSLYLQMNSLRAEDTAVYYCARELGDYDGFDYWGQGTLVTVSS VL: DIQMTQSPSSLSASVGDRVTITCRASQEISSYLSWYQQKPGKAPKLLIYAASSLDSGVPSRFSGSGSGTDFTLTISSLQPEDFATYYCLQYDSTPYTFGGGTKVEIK

140
260
89
78
